assayed-system: 5-hydroxytryptamine receptor 2C (Homo sapiens)
Sequence (P28335 whole entry): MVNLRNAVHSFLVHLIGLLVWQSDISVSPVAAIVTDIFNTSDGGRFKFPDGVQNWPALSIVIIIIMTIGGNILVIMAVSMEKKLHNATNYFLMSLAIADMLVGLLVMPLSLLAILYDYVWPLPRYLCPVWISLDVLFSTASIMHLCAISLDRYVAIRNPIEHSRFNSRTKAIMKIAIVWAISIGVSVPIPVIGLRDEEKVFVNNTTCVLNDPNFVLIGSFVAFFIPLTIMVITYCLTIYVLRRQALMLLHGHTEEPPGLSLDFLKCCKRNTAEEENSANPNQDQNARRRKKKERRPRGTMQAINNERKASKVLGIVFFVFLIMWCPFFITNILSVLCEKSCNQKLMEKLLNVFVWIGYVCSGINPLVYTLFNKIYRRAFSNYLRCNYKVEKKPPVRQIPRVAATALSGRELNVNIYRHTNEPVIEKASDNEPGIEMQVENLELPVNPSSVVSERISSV
test-details: Agonist activity at human 5-HT2C receptor expressed in HEK293 cells assessed as induction of calcium mobilization incubated for 15 mins by calcium 5 dye-based fluorescence assay
Format: functional, cell-based
measured-endpoint: EC50

>>> df
   structure_smiles_string  measured_endpoint  meas_value
0  C[C@H](N)C/C=C\c1ccccc1               EC50     > 10 µM

====

assayed-system: 5-hydroxytryptamine receptor 2C (Homo sapiens, UniProt P28335)
test-details: Agonist activity at human 5-HT2C receptor expressed in HEK293 cells by [3H]-inositol phosphate accumulation assay
Format: functional, cell-based
measured-endpoint: EC50 (nM)

>>> print(df.to_string())
                                   compound  measured_endpoint  meas_value
0  CC(N)Cc1ccc2ccccc2c1 (stereo unspecified)               EC50         2.3

====

Organism: Rattus norvegicus
test-details: Selectivity ratio of EC50 for DAT in rat synaptosomes to EC50 for SERT in rat synaptosomes
Format: subcellular
measured-endpoint: Ratio EC50

>>> print(df.to_string())
                        compound  measured_endpoint  meas_value
0       C[C@@H](N)C/C=C\c1ccccc1         Ratio EC50         1.2
1    CC(N)CC#Cc1ccccc1 (racemic)         Ratio EC50         2.6
2  CC(N)C/C=C\c1ccccc1 (racemic)         Ratio EC50         1.4
3  CC(N)C/C=C/c1ccccc1 (racemic)         Ratio EC50           5
4         C[C@@H](N)CC#Cc1ccccc1         Ratio EC50         2.3
5       C[C@@H](N)C/C=C/c1ccccc1         Ratio EC50           5
6        C[C@H](N)C/C=C/c1ccccc1         Ratio EC50           5

====

assayed-system: Sodium-dependent serotonin transporter (Rattus norvegicus, UniProt P31652)
Sequence (P31652 whole entry): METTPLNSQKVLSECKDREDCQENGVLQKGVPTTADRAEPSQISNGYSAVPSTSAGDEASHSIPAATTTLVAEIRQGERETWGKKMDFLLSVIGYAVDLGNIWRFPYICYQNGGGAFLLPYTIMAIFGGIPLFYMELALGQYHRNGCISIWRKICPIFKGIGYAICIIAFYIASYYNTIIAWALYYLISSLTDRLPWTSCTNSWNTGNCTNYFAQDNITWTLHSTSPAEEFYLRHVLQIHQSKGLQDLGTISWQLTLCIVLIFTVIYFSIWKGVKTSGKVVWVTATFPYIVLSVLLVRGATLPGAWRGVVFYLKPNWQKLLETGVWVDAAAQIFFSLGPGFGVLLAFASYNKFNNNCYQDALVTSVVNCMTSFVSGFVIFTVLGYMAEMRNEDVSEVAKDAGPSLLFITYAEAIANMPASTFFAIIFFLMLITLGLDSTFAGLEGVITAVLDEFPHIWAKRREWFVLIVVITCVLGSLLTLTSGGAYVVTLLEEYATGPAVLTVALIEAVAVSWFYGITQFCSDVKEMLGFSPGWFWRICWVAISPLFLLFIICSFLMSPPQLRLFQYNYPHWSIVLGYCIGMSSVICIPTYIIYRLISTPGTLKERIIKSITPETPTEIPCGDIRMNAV
test-details: Activity at SERT in rat synaptosomes obtained from whole brain minus striatum and cerebellum assessed as release of [3H]5-HT by liquid scintillation counting method
pEC50: −log10 of the molar value.
Reported pEC50 is given for each of the following compounds.
measured-endpoint: pEC50

>>> df
                                compound  meas_value
0  CC(N)/C=C\c1ccccc1 (stereo not drawn)      < 5.00
1  CC(N)/C=C/c1ccccc1 (stereo not drawn)      < 5.00
2                C[C@H](N)C/C=C\c1ccccc1        6.18

====

assayed-system: 5-hydroxytryptamine receptor 2A (Homo sapiens, UniProt P28223)
Sequence (P28223 whole entry): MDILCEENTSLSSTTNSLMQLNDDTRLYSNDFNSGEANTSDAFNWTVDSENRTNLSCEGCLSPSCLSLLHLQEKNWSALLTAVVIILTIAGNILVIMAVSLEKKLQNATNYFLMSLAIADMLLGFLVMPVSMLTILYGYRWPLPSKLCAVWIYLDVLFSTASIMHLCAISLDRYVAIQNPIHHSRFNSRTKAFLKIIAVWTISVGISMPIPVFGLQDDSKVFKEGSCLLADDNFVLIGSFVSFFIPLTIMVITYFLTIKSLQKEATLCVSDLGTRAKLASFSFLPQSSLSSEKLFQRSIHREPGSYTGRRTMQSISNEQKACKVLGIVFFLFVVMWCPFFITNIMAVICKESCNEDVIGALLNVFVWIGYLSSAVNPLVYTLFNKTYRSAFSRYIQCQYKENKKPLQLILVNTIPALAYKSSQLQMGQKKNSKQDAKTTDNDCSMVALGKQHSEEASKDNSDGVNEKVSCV
test-details: Agonist activity at human 5-HT2A receptor expressed in HEK293 cells assessed as induction of calcium mobilization incubated for 15 mins by calcium 5 dye-based fluorescence assay
Type: cell-based
Reported EC50 is given for each of the following compounds.
measured-endpoint: EC50

In [3]: df
Out[3]:
    structure_smiles_string  measured_endpoint  meas_value
0  C[C@@H](N)C/C=C/c1ccccc1               EC50     > 10 µM
1    C[C@@H](N)CC#Cc1ccccc1               EC50     > 10 µM

// data source = ChEMBL document CHEMBL3853267
